Experiment: antivirals against arbovirus infection, primary screen, cell-based, full library, 10K replicate subset (AID 1251)
Details: arbovirus infection cell-based antiviral screen, at 10 µM
About 720 (0.36%) of roughly 200,000 compounds were called active. Cut-off read from the data, not from the text of the source: active = inhibition above about 30%; inactive = the rest, inconclusive results apart. The sample as a whole holds a higher share of actives than the screen did.
# valid calls are active, inactive; nothing else

Worked examples, 3 compounds total:
compound: Cc1ccnc(NS(=O)(=O)c2ccc(NC(=O)c3ccc(S(=O)(=O)N(C)C)cc3)cc2)n1
discrete-label: inactive
//
compound: O=C1NC(=Nc2ccc(Cl)cc2)SC1Cc1cccc(Cl)c1Cl (centres undefined)
discrete-label: active
//
compound: CCOc1ncccc1C(=O)N(C)CC(=O)Nc1ccc(F)cc1
discrete-label: inactive

// query Look up the recorded call for "COc1ccccc1C(=O)Nn1c(-c2cccs2)nc2ccccc2c1=O" in this test.
// result inactive
